- Tested on: Mycobacterium tuberculosis
- experimentDescription: Antitubercular activity against Mycobacterium tuberculosis H37Rv ATCC27294 assessed as complete cessation of growth
- Assay type: functional
- details: H37Rv ATCC 27294
# Lookup of reported MIC keyed by entry
The reply should be a number in µM, with the unit left off.

Below are worked cases with known answers.
O=C(Nc1cc(C(F)(F)F)cc(C(F)(F)F)c1)c1cc(F)ccc1O ... 3.1
O=C(Nc1cc(C(F)(F)F)cc(C(F)(F)F)c1)c1ccccc1O ... 6.3
CC(C)(C)c1ccc(NC(=O)c2cc(Cl)ccc2O)cc1 ... 13
O=C(Nc1cccc(C(F)(F)F)c1F)c1cc(Cl)ccc1O ... 3.1
O=C(Nc1ccc(C(F)(F)F)cc1)c1cc(Cl)ccc1O ... 1.6
O=C(Nc1cccc(Br)c1)c1cc(Cl)ccc1O ... 6.3
O=C(Nc1cccc(C(F)(F)F)c1C(F)(F)F)c1cc(Cl)ccc1O ... 6.3
Oc1ccc(Cl)cc1C(=S)Nc1cc(C(F)(F)F)cc(C(F)(F)F)c1 ... 1.6

Then this molecule:
Enquiry: Provide Mycobacterium tuberculosis MIC reading for "O=C(Nc1cc(F)c(F)cc1F)c1cc(Cl)ccc1O" .
Return: 3.1

---

- Tested on: Mycobacterium tuberculosis
- experimentDescription: Antitubercular activity against Mycobacterium tuberculosis H37Rv ATCC27294 assessed as complete cessation of growth
- Assay type: functional
- details: H37Rv ATCC 27294
reportedMetric: MIC

// below: answered compounds
O=C(Nc1ccc(N2CCOCC2)cc1)c1cc(Cl)ccc1O ... > 50 µM
O=C(Nc1c(Cl)cccc1C(F)(F)F)c1cc(Cl)ccc1O ... > 50 µM
Cc1cc(C)cc(NC(=O)c2cc(Cl)ccc2O)c1 ... ≥ 50 µM
COc1ccc(Cl)cc1C(=O)Nc1cc(C(F)(F)F)cc(C(F)(F)F)c1 ... > 50 µM

Enquiry: Report MIC, nothing else, for this compound: "O=S(=O)(Nc1cc(C(F)(F)F)cc(C(F)(F)F)c1)c1cc(Cl)ccc1O"
Return: ≥ 50 µM

Enquiry: Identify measured MIC associated with "O=C(Nc1ccccc1S(=O)(=O)c1ccccc1)c1cc(Cl)ccc1O"
Return: > 50 µM

Enquiry: In one line, give reported MIC of the entry "O=C(Nc1cc(C(F)(F)F)cc(C(F)(F)F)c1)c1cc(Cl)ccc1OCc1ccccc1" .
Return: > 50 µM

Enquiry: Return MIC (reported value) for this compound: "O=C(Nc1cc(Br)cc(C(F)(F)F)c1)c1cc(F)ccc1O"
Return: 3.1 µM

Enquiry: Consider the compound "NC(=O)c1ccc(NC(=O)c2cc(Cl)ccc2O)cc1" . State its measured MIC.
Return: > 50 µM

---

- Test system: Mycobacterium tuberculosis
- experimentDescription: Antitubercular activity against Mycobacterium tuberculosis H37Rv ATCC27294 assessed as complete cessation of growth
- Assay type: functional
- details: H37Rv ATCC 27294
Documented MIC across a set of compounds
Give the number; µM is assumed, so skip it.

Sample records with MIC:
O=C(Nc1cc(C(F)(F)F)ccc1F)c1cc(Cl)ccc1O ... 1.6
O=C(Nc1cc(C(F)(F)F)cc(C(F)(F)F)c1)c1cc(Cl)ccc1O ... 3.1

Enquiry: Hello, please tell me recorded MIC for this one: "O=C(Nc1cc(C(F)(F)F)ccc1Cl)c1cc(Cl)ccc1O"
Return: 1.6
